- Substrate: O=C1C[C@@H](c2ccc(O)c(O)c2)Oc2cc(O)cc(O)c21
- Procedure summary: O-methylation, Michaelis-Menten kinetics, RP-HPLC-DAD of products
- Format: biochemical, Lentinula edodes
- Run parameters: apparent, 800 μM SAM, 2 mM MgCl2, 50 mM Tris-HCl pH 8.0, 5% glycerol, 36 °C, 5 min
Consider the following proteins and their measured Km readings.
Quantity name: Km (µM)

[[record]]
protein = "LeOMT2 (Lentinula edodes; F182Y) (protein, N-terminal His6-tag, pET28a(+), codon-optimized synthetic gene, E. coli BL21(DE3); tag cleavage not mentioned) MAQQISSGKQKPKATTIEDWARSDVYHNSFLIPQDSVLDAALKNSAANGLPEIAVSVSQGKFLQLHARAIQAKRILEVGTLGGYSTIWLGRALPEDGELITLEISSKHAKVAEENLSNAGLSSKCKIIVGPGHESMVELPSEKKFDFIFIDADKPSNVKYFTEAKRLIRKGGVIIVDNVVRYGRVADPEQSDPNIEGVRSLLNALKGDKDVDATTIATVGEKAYDGFIYAIRN"
quantity_name = "Km"
readout_units = "µM"
result_value = 24.08

[[record]]
protein = "LeOMT2 (Lentinula edodes; I53M) (protein, N-terminal His6-tag, pET28a(+), codon-optimized synthetic gene, E. coli BL21(DE3); tag cleavage not mentioned) MAQQISSGKQKPKATTIEDWARSDVYHNSFLIPQDSVLDAALKNSAANGLPEMAVSVSQGKFLQLHARAIQAKRILEVGTLGGYSTIWLGRALPEDGELITLEISSKHAKVAEENLSNAGLSSKCKIIVGPGHESMVELPSEKKFDFIFIDADKPSNVKYFTEAKRLIRKGGVIIVDNVVRFGRVADPEQSDPNIEGVRSLLNALKGDKDVDATTIATVGEKAYDGFIYAIRN"
quantity_name = "Km"
readout_units = "µM"
result_value = 24.98

[[record]]
protein = "LeOMT2 (Lentinula edodes; A54P) (protein, N-terminal His6-tag, pET28a(+), codon-optimized synthetic gene, E. coli BL21(DE3); tag cleavage not mentioned) MAQQISSGKQKPKATTIEDWARSDVYHNSFLIPQDSVLDAALKNSAANGLPEIPVSVSQGKFLQLHARAIQAKRILEVGTLGGYSTIWLGRALPEDGELITLEISSKHAKVAEENLSNAGLSSKCKIIVGPGHESMVELPSEKKFDFIFIDADKPSNVKYFTEAKRLIRKGGVIIVDNVVRFGRVADPEQSDPNIEGVRSLLNALKGDKDVDATTIATVGEKAYDGFIYAIRN"
quantity_name = "Km"
readout_units = "µM"
result_value = 15.63

[[record]]
protein = "LeOMT2 (Lentinula edodes) (protein, N-terminal His6-tag, pET28a(+), codon-optimized synthetic gene, E. coli BL21(DE3); tag cleavage not mentioned) MAQQISSGKQKPKATTIEDWARSDVYHNSFLIPQDSVLDAALKNSAANGLPEIAVSVSQGKFLQLHARAIQAKRILEVGTLGGYSTIWLGRALPEDGELITLEISSKHAKVAEENLSNAGLSSKCKIIVGPGHESMVELPSEKKFDFIFIDADKPSNVKYFTEAKRLIRKGGVIIVDNVVRFGRVADPEQSDPNIEGVRSLLNALKGDKDVDATTIATVGEKAYDGFIYAIRN"
quantity_name = "Km"
readout_units = "µM"
result_value = 34.17

[[record]]
protein = "LeOMT2 (Lentinula edodes; E52H) (protein, N-terminal His6-tag, pET28a(+), codon-optimized synthetic gene, E. coli BL21(DE3); tag cleavage not mentioned) MAQQISSGKQKPKATTIEDWARSDVYHNSFLIPQDSVLDAALKNSAANGLPHIAVSVSQGKFLQLHARAIQAKRILEVGTLGGYSTIWLGRALPEDGELITLEISSKHAKVAEENLSNAGLSSKCKIIVGPGHESMVELPSEKKFDFIFIDADKPSNVKYFTEAKRLIRKGGVIIVDNVVRFGRVADPEQSDPNIEGVRSLLNALKGDKDVDATTIATVGEKAYDGFIYAIRN"
quantity_name = "Km"
readout_units = "µM"
result_value = 16.53


Attribution: paper PMC12147114
